# System: IGR37-GP cells (Dabrafenib-resistant)
# test_name: Kinase inhibitor library screening, PrestoBlue cell viability, 1 or 10 μM, 72 h
# condition_notes: Homo sapiens, IGR-37, 72 h, read-out: cell viability, IGR37 GP, 1μΜ
measurement_kind: viability at 1 µM (%)
Reply numerically in %, unit not repeated.

Worked cases, viability at 1 µM given:
[[record]]
compound = "Cc1cc(Nc2nc(N[C@@H](C)c3ccc(F)cc3)c(C#N)cc2F)[nH]n1"
target_or_test_system = "IGR37-GP cells (Dabrafenib-resistant)"
unit_of_measurement = "%"
value = 87.2

[[record]]
compound = "Cc1cc(Nc2ncnc3ccc(NC4=NC(C)(C)CO4)cc23)ccc1Oc1ccn2ncnc2c1"
target_or_test_system = "IGR37-GP cells (Dabrafenib-resistant)"
unit_of_measurement = "%"
value = 96.4

[[record]]
compound = "CCN(CC)CCCCNc1ncc2cc(-c3cc(OC)cc(OC)c3)c(NC(=O)NC(C)(C)C)nc2n1"
target_or_test_system = "IGR37-GP cells (Dabrafenib-resistant)"
unit_of_measurement = "%"
value = 91.4

[[record]]
compound = "Cn1cc(C2=C(c3ccc(Cl)cc3Cl)C(=O)NC2=O)c2ccccc21"
target_or_test_system = "IGR37-GP cells (Dabrafenib-resistant)"
unit_of_measurement = "%"
value = 105

[[record]]
compound = "C=CC(=O)Nc1cccc(Oc2nc(Nc3ccc(N4CCN(C)CC4)cc3OC)ncc2Cl)c1"
target_or_test_system = "IGR37-GP cells (Dabrafenib-resistant)"
unit_of_measurement = "%"
value = 91.8


Q: Assign viability at 1 µM to the following record: Cc1cc(Nc2cc(N3CCN(C)CC3)nc(/C=C/c3ccccc3)n2)n[nH]1
Result: 90.4

Q: Assign viability at 1 µM to the following record: O=C(c1ccc(/C=C/c2n[nH]c3ccccc23)cc1)N1CCNCC1
Result: 96.4

Q: Assign viability at 1 µM to the following record: O=C(Nc1cc(C(F)(F)F)cc(C(F)(F)F)c1)c1cc(Cl)ccc1O [IMD 0354, reference compound]
Result: 46.7

###

# System: A375-GP cells (Dabrafenib-resistant)
# test_name: Dose-response curves and IC50, PrestoBlue cell viability, 72 h
# Type: cell-based, human
# condition_notes: n.e. = did not suppress growth below 50% in the tested concentration range, read-out: Half-maximal inhibitory concentration value (IC50), Mean
measurement_kind: IC50 (µM)
Reply numerically in µM, unit not repeated.

Worked cases, IC50 given:
[[record]]
compound = "CCC[C@H](NC(=O)/C(C#N)=C/c1cccc(Br)n1)c1ccccc1 [WP1130, reference compound]"
target_or_test_system = "A375-GP cells (Dabrafenib-resistant)"
measurement_kind = "IC50"
unit_of_measurement = "µM"
value = 1.58

[[record]]
compound = "CNC(=O)c1ccccc1Nc1nc(Nc2ccc(N3CCOCC3)cc2OC)ncc1Cl"
target_or_test_system = "A375-GP cells (Dabrafenib-resistant)"
measurement_kind = "IC50"
unit_of_measurement = "µM"
value = 0.301

[[record]]
compound = "Cc1ccc(C(=O)Nc2cccc(C(F)(F)F)c2)cc1Nc1nc(-c2cccnc2)nc2c1cnn2C [NVP-BHG712, reference compound]"
target_or_test_system = "A375-GP cells (Dabrafenib-resistant)"
measurement_kind = "IC50"
unit_of_measurement = "µM"
value = 1.91


Moving on to the next compound.
Q: Find the measured IC50 of O=c1[nH]c2ccc(Cl)cc2c(N[C@@H]2CN3CCC2CC3)c1-c1nc2ccccc2[nH]1 [CHIR-124, reference compound] with A375-GP cells (Dabrafenib-resistant) as test system.
Result: 0.278

###

# System: IGR37 cells (parental)
# test_name: Kinase inhibitor library screening, PrestoBlue cell viability, 1 or 10 μM, 72 h
# condition_notes: IGR37 Parental; 10μΜ; 72 h; in %
Lab note: anything with Cell viability in kinase inhibitor library screening, IGR37 Parental, 10μΜ below 30 is marked T; values at 30 or higher are marked F.

Would you please look over these solved cases?
[[record]]
compound = "CCCS(=O)(=O)Nc1ccc(F)c(C(=O)c2c[nH]c3ncc(Cl)cc23)c1F [PLX-4720]"
class_label = "F"

[[record]]
compound = "CNC(=O)c1cccc(-c2ccc3c(N4CCOC[C@@H]4C)nc(N4CCOC[C@@H]4C)nc3n2)c1 [AZD2014]"
class_label = "T"

[[record]]
compound = "Nc1ccc(-c2ccc3ncc4ccc(=O)n(-c5cccc(C(F)(F)F)c5)c4c3c2)cn1 [Torin 2]"
class_label = "T"

[[record]]
compound = "O=C1NC(=O)/C(=C\\c2ccc3nccnc3c2)S1 [AS-605240]"
class_label = "F"

[[record]]
compound = "CC1(COc2ccc3c(c2)ncn3-c2ccc3cccc(N4CCC(N)CC4)c3n2)COC1 [Crenolanib (CP-868596)]"
class_label = "F"


Q: Please determine if OCCn1cc(-c2ccc3c(c2)CC/C3=N\O)c(-c2ccncc2)n1 [GDC-0879] is below 30 in terms of Cell viability in kinase inhibitor library screening, IGR37 Parental, 10μΜ.
Result: T

Q: Please determine if COc1ccc2c(c1OC)N=C(NC(=O)c1cccnc1)N1CCN=C21 [PIK-90] is below 30 in terms of Cell viability in kinase inhibitor library screening, IGR37 Parental, 10μΜ.
Result: F

Q: Please determine if Nc1nc(N)c2nc(-c3cccc(O)c3)cnc2n1 [TG 100713] is below 30 in terms of Cell viability in kinase inhibitor library screening, IGR37 Parental, 10μΜ.
Result: F

###

# Tested on: 501Mel cells (parental)
# test_name: Kinase inhibitor library screening, PrestoBlue cell viability, 1 or 10 μM, 72 h
# condition_notes: Homo sapiens, 72 h, read-out: cell viability, 501Mel Parental, 1μΜ
The following compounds are listed with their measured viability at 1 µM values.
Reply numerically in %, unit not repeated.

Worked cases, viability at 1 µM given:
[[record]]
compound = "Cc1cc(Nc2cc(CN3CCOCC3)c3nc(C)c(Cc4ccc(Cl)cc4F)n3n2)n[nH]1"
value = 89.9

[[record]]
compound = "Cc1cc(Nc2nc(N[C@@H](C)c3ccc(F)cc3)c(C#N)cc2F)[nH]n1"
value = 49.1

[[record]]
compound = "O=c1sn(-c2cccc3ccccc23)c(=O)n1Cc1ccccc1"
value = 110

[[record]]
compound = "N#CC[C@H](C1CCCC1)n1cc(-c2ncnc3[nH]ccc23)cn1"
value = 95.6

[[record]]
compound = "CCS(=O)(=O)N1CC(CC#N)(n2cc(-c3ncnc4[nH]ccc34)cn2)C1"
value = 95


Q: Find the measured viability at 1 µM of Cc1cc(C(=O)NOCCO)c(Nc2ccc(I)cc2F)n(C)c1=O [AZD8330, reference compound] with 501Mel cells (parental) as test system.
Result: 48.9

Q: Find the measured viability at 1 µM of CNC(=O)CN1CCC(Oc2cc3c(Nc4cccc(Cl)c4F)ncnc3cc2OC)CC1 with 501Mel cells (parental) as test system.
Result: 90.5

Q: Find the measured viability at 1 µM of Cn1c(=O)c(F)c(Nc2ccc(I)cc2F)c2c(=O)n(C[C@@H](O)CO)cnc21 with 501Mel cells (parental) as test system.
Result: 54

###

# Test system: IGR37-XP cells (Vemurafenib-resistant)
# test_name: Kinase inhibitor library screening, PrestoBlue cell viability, 1 or 10 μM, 72 h
# condition_notes: Homo sapiens, IGR-37, 72 h, read-out: cell viability, IGR37 XP, 10μΜ
measurement_kind: viability at 10 µM (%)
Reply numerically in %, unit not repeated.

[[record]]
chemical_structure = "CN(C)Cc1cccc(N/C(=C2\\C(=O)Nc3cc(C(N)=O)ccc32)c2ccccc2)c1"
value = 71.5

[[record]]
chemical_structure = "Cc1cc(Nc2ncnc3ccc(NC4=NC(C)(C)CO4)cc23)ccc1Oc1ccn2ncnc2c1"
value = 24.3

[[record]]
chemical_structure = "O=C1Nc2ccccc2/C1=C1/Nc2ccccc2C1=O"
value = 75.6


Q: Assign viability at 10 µM to the following record: CC(C)(O)CC(=O)NCCn1ccc2ncnc(Nc3ccc(Oc4cccc(C(F)(F)F)c4)c(Cl)c3)c21
Result: 48.4

Q: Assign viability at 10 µM to the following record: Cn1c(=O)c(F)c(Nc2ccc(I)cc2F)c2c(=O)n(C[C@@H](O)CO)cnc21
Result: 22

Q: Assign viability at 10 µM to the following record: COCC(=O)NC/C=C/c1ccc2ncnc(Nc3ccc(Oc4ccc(C)nc4)c(C)c3)c2c1
Result: 52.3

Q: Assign viability at 10 µM to the following record: O=C(c1ccc(/C=C/c2n[nH]c3ccccc23)cc1)N1CCNCC1
Result: 18

Q: Assign viability at 10 µM to the following record: CCN1CCN(c2ccc(Nc3cc(N(C)C(=O)Nc4c(Cl)c(OC)cc(OC)c4Cl)ncn3)cc2)CC1
Result: 1

###

# Test system: 501Mel-XP cells (Vemurafenib-resistant)
# test_name: Kinase inhibitor library screening, PrestoBlue cell viability, 1 or 10 μM, 72 h
# condition_notes: 501Mel XP; 10μΜ; 72 h; in %
# Method: After 72 h of treatment, cell viability was assessed using the PrestoBlue Cell Viability Reagent (ThermoFisher Scientific). Measurements were performed with the CLARIOstar Monochromator microplate reader (BMG Labtech). Kinase inhibitor library screening. […] Drugs were added at 2 different concentrations, 1 and 10 μM, for 72 h and cell viability was assessed using the PrestoBlue Cell Viability assay. […] Each cell line was analyzed at least in duplicate. […]
Lab note: anything with Cell viability in kinase inhibitor library screening, 501Mel XP, 10μΜ below 4 is marked rule met; values at 4 or higher are marked rule not met.

Would you please look over these solved cases?
[[record]]
compound = "CO[C@H]1C[C@@H]2CC[C@@H](C)[C@@](O)(O2)C(=O)C(=O)N2CCCC[C@H]2C(=O)O[C@H]([C@H](C)C[C@@H]2CC[C@@H](OP(C)(C)=O)[C@H](OC)C2)CC(=O)[C@H](C)/C=C(\\C)[C@@H](O)[C@@H](OC)C(=O)[C@H](C)C[C@H](C)/C=C/C=C/C=C/1C [Deforolimus (Ridaforolimus)]"
class_label = "rule not met"

[[record]]
compound = "Cn1c(=O)n(-c2ccc(C(C)(C)C#N)cc2)c2c3cc(-c4cnc5ccccc5c4)ccc3ncc21"
class_label = "rule met"

[[record]]
compound = "NCC(=O)Nc1ccc(-n2nc(C(F)(F)F)cc2-c2ccc3c(ccc4ccccc43)c2)cc1"
class_label = "rule met"

[[record]]
compound = "COc1cccc2cc(-c3nc([C@H]4CC[C@H](C(=O)O)CC4)n4ncnc(N)c34)[nH]c12"
class_label = "rule not met"

[[record]]
compound = "COc1ccc(-c2ccc3c(N4CCOC[C@@H]4C)nc(N4CCOC[C@@H]4C)nc3n2)cc1CO"
class_label = "rule not met"


Q: Please determine if CNC(=O)c1cccc(-c2ccc3c(N4CCOC[C@@H]4C)nc(N4CCOC[C@@H]4C)nc3n2)c1 is below 4 in terms of Cell viability in kinase inhibitor library screening, 501Mel XP, 10μΜ.
Result: rule met

Q: Please determine if NC(=O)c1ccc(N(C(N)=O)c2c(F)cccc2F)nc1-c1ccc(F)cc1F is below 4 in terms of Cell viability in kinase inhibitor library screening, 501Mel XP, 10μΜ.
Result: rule not met

Q: Please determine if Cc1nc(NC(=O)N2CCC[C@H]2C(N)=O)sc1-c1ccnc(C(C)(C)C(F)(F)F)c1 is below 4 in terms of Cell viability in kinase inhibitor library screening, 501Mel XP, 10μΜ.
Result: rule not met

Q: Please determine if Cc1ccc([N+](=O)[O-])cc1S(=O)(=O)N(C)/N=C/c1cnc2ccc(Br)cn12 [PIK-75, reference compound] is below 4 in terms of Cell viability in kinase inhibitor library screening, 501Mel XP, 10μΜ.
Result: rule met
